- Organism: Homo sapiens
- test: Thermal stabilization of human telomeric G-quadruplex FAM-TTAGGGTTAGGGTTAGGGTTAGGG-TAMRA DNA assessed as change in melting temperature at 1:5 DNA:ligand ratio by FRET assay
Recorded deltaTm, one value per entry.
// units = K; emit number, no label

N=C(N)NCCCCNc1c2c(c(NCCCCNC(=N)N)c3sccc13)C(=O)c1ccccc1C2=O = 34

Challenge: Given `N=C(N)NCCCNc1c2c(c(NCCNC(=N)N)c3sccc13)C(=O)c1ccccc1C2=O` , state its recorded deltaTm.
Response given: 23

###

- test: Binding affinity to human telomeric G-quadruplex FAM-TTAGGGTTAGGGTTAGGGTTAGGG-TAMRA DNA assessed as quenching of fluorescence emission by FRET titration assay
Kd under 0.2 µM gets y, anything at or over 0.2 µM gets n.

N=C(N)NCCCNc1c2c(c(NCCNC(=N)N)c3ccsc13)C(=O)c1ccccc1C2=O = n
N=C(N)NCCNc1c2c(c(NCCNC(=N)N)c3sccc13)C(=O)c1ccccc1C2=O = y
N=C(N)NCCCNc1c2c(c(NCCNC(=N)N)c3sccc13)C(=O)c1ccccc1C2=O = n
N=C(N)NCCCCNc1c2c(c(NCCCCNC(=N)N)c3sccc13)C(=O)c1ccccc1C2=O = y

Challenge: Quick check: does `N=C(N)NCCCNc1c2c(c(NCCCNC(=N)N)c3sccc13)C(=O)c1ccccc1C2=O` have Kd under 0.2 µM?
Response given: y

###

Readings of deltaTm for the listed compounds
- Species: Homo sapiens
- test: Thermal stabilization of human HRAS1 G-quadruplex FAM-TCGGGTTGCGGGCGCAGGGCACGGGCG-TAMRA DNA assessed as change in melting temperature at 1:1 DNA:ligand ratio by FRET assay
Quick note: give the figure in K, leave out the unit.

N=C(N)NCCCNc1c2c(c(NCCNC(=N)N)c3sccc13)C(=O)c1ccccc1C2=O = 8
N=C(N)NCCCNc1c2c(c(NCCCNC(=N)N)c3sccc13)C(=O)c1ccccc1C2=O = 5
N=C(N)NCCCNc1c2c(c(NCCNC(=N)N)c3ccsc13)C(=O)c1ccccc1C2=O = 5
N=C(N)NCCCCNc1c2c(c(NCCCCNC(=N)N)c3sccc13)C(=O)c1ccccc1C2=O = 7

Challenge: Quick check: deltaTm of `N=C(N)NCCNc1c2c(c(NCCNC(=N)N)c3sccc13)C(=O)c1ccccc1C2=O` ?
Response given: 5

###

- Species on record: Homo sapiens
- test: Thermal stabilization of human NRAS G-quadruplex FAM-GGGAGGGGCGGGUCUGGG-TAMRA RNA assessed as change in melting temperature at 1:1 DNA:ligand ratio by FRET assay
Reported deltaTm values for a set of molecules

Known results for molecules:
N=C(N)NCCCNc1c2c(c(NCCNC(=N)N)c3ccsc13)C(=O)c1ccccc1C2=O = 9 K
N=C(N)NCCCNc1c2c(c(NCCNC(=N)N)c3sccc13)C(=O)c1ccccc1C2=O = 11 K
N=C(N)NCCCNc1c2c(c(NCCCNC(=N)N)c3sccc13)C(=O)c1ccccc1C2=O = 11 K
N=C(N)NCCNc1c2c(c(NCCNC(=N)N)c3sccc13)C(=O)c1ccccc1C2=O = 5 K

// switching to the query molecule
Challenge: Requested read-out: deltaTm. Entry: `N=C(N)NCCCCNc1c2c(c(NCCCCNC(=N)N)c3sccc13)C(=O)c1ccccc1C2=O`
Response given: > 13 K

###

- test: Binding affinity to human HRAS2 G-quadruplex FAM-CGGGGCGGGGCGGGGGCGGGGGCG-TAMRA DNA assessed as quenching of fluorescence emission by FRET titration assay
result.type: Kd (nM)
Give the number; nM is assumed, so skip it.

Some solved cases for reference:
N=C(N)NCCNc1c2c(c(NCCNC(=N)N)c3sccc13)C(=O)c1ccccc1C2=O = 270
N=C(N)NCCCNc1c2c(c(NCCNC(=N)N)c3ccsc13)C(=O)c1ccccc1C2=O = 370
N=C(N)NCCCNc1c2c(c(NCCNC(=N)N)c3sccc13)C(=O)c1ccccc1C2=O = 280
N=C(N)NCCCCNc1c2c(c(NCCCCNC(=N)N)c3sccc13)C(=O)c1ccccc1C2=O = 280

Challenge: Record request: Kd value, item `N=C(N)NCCCNc1c2c(c(NCCCNC(=N)N)c3sccc13)C(=O)c1ccccc1C2=O`
Response given: 230

###

- Species: Homo sapiens
- test: Thermal stabilization of human telomeric G-quadruplex FAM-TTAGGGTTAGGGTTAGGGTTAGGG-TAMRA DNA assessed as change in melting temperature at 1:5 DNA:ligand ratio by FRET assay
Consider the following compounds and their measured deltaTm readings.
Give your result in K as a bare value.

Here is how some compounds turned out for deltaTm.
N=C(N)NCCCNc1c2c(c(NCCCNC(=N)N)c3sccc13)C(=O)c1ccccc1C2=O = 21
N=C(N)NCCNc1c2c(c(NCCNC(=N)N)c3sccc13)C(=O)c1ccccc1C2=O = 14
NCCOc1cc(C(=O)Nc2cc(OCCN)c3ccccc3n2)nc(C(=O)Nc2cc(OCCN)c3ccccc3n2)c1 = 35

Now consider a different compound.
Challenge: Need deltaTm, item `N=C(N)NCCCNc1c2c(c(NCCNC(=N)N)c3ccsc13)C(=O)c1ccccc1C2=O`
Response given: 21
